The reported measurements were obtained from the supplement of paper PMC9233669.

Test system: biotinyl-Trp-oxazolone
assay.remarks: self-aminoacylation, catalytic enhancement (BWO) (fold over background); higher = more active; k-Seq, kA / k0A0; sequences stand for … in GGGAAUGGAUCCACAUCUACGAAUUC…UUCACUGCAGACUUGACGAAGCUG
Variants at the floor of the assay were thinned out.
value.kind: self-aminoacylation

query: For the sequence AAGCUUGCUGAUAGUCGCAAG [Fam3.1 aminoacylation ribozyme variant] , what self-aminoacylation is on record?
result: 3.03

query: Which self-aminoacylation value is on record for CUACUUAAAACAAUCGCUCUG [Fam1A.1 aminoacylation ribozyme variant] ?
result: 0.462

query: What measured self-aminoacylation goes with AUUGCCCUGGUCAUCUAGUGA [Fam2.1 aminoacylation ribozyme variant] ?
result: 10.3

query: Please look up its self-aminoacylation: AAGUUCGCUAAUAGUCGCAAG [Fam3.1 aminoacylation ribozyme variant]
result: 2.94

query: Which self-aminoacylation is listed for AUUCAACUAGGGCAUCGGGUG [Fam2.2 aminoacylation ribozyme variant] ?
result: 2.99

query: Consider the sequence AUGACCCGGGUCAUCGAGUGA [Fam2.1 aminoacylation ribozyme variant] and give its measured self-aminoacylation.
result: 6.53

query: Any idea what its self-aminoacylation is? The sequence is AUUCCCCUGGUCAUCGAGCGA [Fam2.1 aminoacylation ribozyme variant]
result: 1.53
